Just for reference, patent US20260166168A1 is where these values come from.

// reported EC50 for each item listed
measurement.target: T1, recombinant extracellular domain protein of cynomolgus monkey DLL3 (cyno.DLL3-ECD-His) (cynomolgus monkey, UniProt A0A2K5WSR1 27-490)
T1 construct: extracellular domain; Commercial protein; not shown: His tag
T1 sequence: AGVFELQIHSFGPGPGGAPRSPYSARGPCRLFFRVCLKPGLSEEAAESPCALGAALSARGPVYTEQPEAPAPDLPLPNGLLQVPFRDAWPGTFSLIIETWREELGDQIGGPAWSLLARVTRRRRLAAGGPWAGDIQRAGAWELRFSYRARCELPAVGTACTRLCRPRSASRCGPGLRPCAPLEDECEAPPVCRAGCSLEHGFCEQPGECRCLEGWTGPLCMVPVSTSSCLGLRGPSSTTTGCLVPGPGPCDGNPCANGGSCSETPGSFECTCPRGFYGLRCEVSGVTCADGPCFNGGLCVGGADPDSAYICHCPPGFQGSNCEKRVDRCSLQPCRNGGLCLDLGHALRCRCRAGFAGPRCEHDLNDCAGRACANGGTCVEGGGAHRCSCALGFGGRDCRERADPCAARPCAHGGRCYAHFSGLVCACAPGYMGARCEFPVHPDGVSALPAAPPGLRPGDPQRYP
assay.comment: ELISA, coated cyno.DLL3-ECD-his 0.2 µg/mL, antibody titrated
Give the number; ng/mL is assumed, so skip it.

binder	EC50 [ng/mL]
10F2F3-Hz antibody (antibody, human IgG1, kappa, V domains shown, Humanized) VH: QVQLVESGAEVKKPGSSVKVSCKASGYAFSSHWVNWVRQAPGQGLEWMGQIYPGNGDTNYAQKFQGRVTLTADKSTSTAYMELSSLTSEDTAVYFCARWFAYWGQGTLVTVSS VL: DIQMTQSPSSLSASVGDRVTITCKSSQSLLDGGNQKNYLAWYQQKPGKPPKLLVYFASIRESGVPSRFSGSGSGTDFTLTISSLQPEDFATYYCQQHYNTPWTFGQGTKVEIKR	3.5
59B10D3-Hz antibody (antibody, human IgG1, kappa, V domains shown, Humanized; also called 59B10D3-hz1) VH: EVQLVESGGGLVQPGGSLRLSCAASGFTFSDAWMDWVRQAPGKGLEWVAEIRNKANNHATYYVDSVKGRFTISRDDAKNSVYLQMNSLRAEDTAVYYCTRNNYGSTWTYYAMDYWGQGTLVTVSS VL: DIQMTQSPSSLSASVGDRVTITCRASQDISNYLNWYQQKPGKAVKLLIYYTSRLHSGVPSRFSGSGSGTDYTLTISSLQPEDFATYYCQQGYTLPLTFGQGTKVEIKR	6.3
87F7F10-Hz (antibody, human IgG1, kappa, V domains shown, Humanized; also called 87F7F10-hz1) VH: QVQLQESGPGLVKPSETLSLTCTVSGYSITSDFYWNWIRQPPGKGLEWIGYITYDGSTNYNPSLKSRVTISRDTSKNQFSLKLSSVTAADTAVYYCVYGDFNRHAMDYWGQGTLVTVSS VL: DIVMTQSPDSLAVSLGERATINCRSSQSLFNSRTRKNYLAWYQQKPGQPPKVLIYWASTRESGVPDRFSGSGSGTDFTLTISSLQAEDVAVYYCEQSFYLFTFGQGTKVEIKR	3.3
6F11C10-Hz1 antibody (antibody, human IgG1, kappa, V domains shown, Humanized IgG1/kappa) VH: EVQLVQSGAEVKKPGASVKVSCKASGFTFTDYYMHWVRQAPGQSLEWMGLVYPYNGDISYAQKFQGRVTLTVDTSISTAYMELSRLRSDDTAVYYCARQGNYVNNAIDYWGQGTLVTVSS VL: DIQMTQSPSSLSASVGDRVTITCKASQNVGNIIAWYQQKPGKSPKALIYLASYRYSGVPSRFSGSGSGTDFTLTISSLQPEDVATYFCQQYSDSPYTFGQGTKVEIKR	5.4

Task item: Param item = 55C11E4-Hz1 (antibody, human IgG1, kappa, V domains shown, Humanized IgG1/kappa) VH: EVQLVQSGAEVKKPGASVKVSCKASGYTFTDYYMNWVRQAPGQRLEWMGVINPYNGGTNYSQKFQGRVTLTVDKSASTAYMELSSLRSEDTAVYYCARDSNYVGLLDYWGQGTLVTVSS VL: DIVLTQSPATLSLSPGERATLSCRASQSISNNLHWYQQKPGQAPRLLIKYASQSISGIPARFSGSGSGPDFTLTISSLEPEDFAVYFCQQSNSWPYTFGQGTKVEIKR ; retrieve measured EC50.
Reply: 4.1
